Test: ATG_NRF2_ARE_CIS: Attagene CIS-FACTORIAL HepG2 Assay for human Nuclear Factor Erythroid 2 Related Factor 2 (NFR2) response to Antioxidant Response Elements (ARE) (AID 2282992)
Details: HepG2 Attagene ARE/NRF2 reporter, transcription factor activity; actives raise or lower the signal
Active and inactive are the calls of the source. How the source made its calls: active means hit-call score of the fitted dose curve at least 0.9, where 1 is the maximum; inactive means score below 0.9.
Respond using exactly one of the listed classes: true (1) = active, false (0) = inactive

Input: Would you mind telling me which call this test gave CC(C)CBr ?
Output: false (0)

Input: Lookup CCOP(=S)(OCC)SCS(=O)(=O)CC
Output: false (0)

Input: Lookup N#Cc1c(-c2ccc(Cl)cc2)[nH]c(C(F)(F)F)c1Br
Output: true (1)

Input: Lookup c1nc[nH]n1
Output: false (0)

Input: Lookup [N-]=[N+]=[N-]
Output: false (0)

Input: Lookup CC1=C(C(=O)Nc2ccccc2)S(=O)(=O)CCO1
Output: true (1)

Input: Lookup Nc1ccc([N+](=O)[O-])cc1Cl
Output: false (0)

Input: Lookup CCOc1ccc(C(C)(C)COCc2cccc(Oc3ccccc3)c2)cc1
Output: false (0)

Input: Lookup O=P(OCC(Br)CBr)(OCC(Br)CBr)OCC(Br)CBr (centres undefined)
Output: true (1)

----------
Test: ATG_EGR_CIS: Attagene CIS-FACTORIAL HepG2 Assay for human Early Growth Response 1 (EGR1) (AID 2282938)
Conditions: HepG2 Attagene CIS-FACTORIAL EGR reporter mRNA; actives raise or lower the signal
Experimental: ATG_CIS is a cell-based, multiplexed-readout assay that uses HepG2, a human liver cell line, with measurements taken at 24 hours after chemical dosing in a 24-well plate.ATG_EGR_CIS is one of 52 assay component(s) measured or calculated from the ATG_CIS assay. […] This assay endpoint, ATG_EGR_CIS, was analyzed with bidirectional fitting relative to DMSO as the negative control and baseline of activity. […]
Active and inactive are the calls of the source. How the source made its calls: active means hit-call score of the fitted dose curve at least 0.9, where 1 is the maximum; inactive means score below 0.9.
Respond using exactly one of the listed classes: 1 (yes) = active, 0 (no) = inactive

Input: Would you mind telling me which call this test gave O=P1(N(CCCl)CCCl)NCCCO1 (stereo not drawn) ?
Output: 0 (no)

Input: Lookup O=c1ssc(Cl)c1Cl
Output: 1 (yes)

Input: Lookup CCOC(=O)c1ccccc1C(=O)OCC
Output: 0 (no)

Input: Lookup COC(N)=O
Output: 0 (no)

Input: Lookup OCC1CO1 (stereo not drawn)
Output: 0 (no)

Input: Lookup O=P(OCC(Br)CBr)(OCC(Br)CBr)OCC(Br)CBr (stereo not drawn)
Output: 1 (yes)

Input: Lookup O=C(O)C(F)(F)OC(F)(F)C(F)(F)OC(F)(F)F
Output: 0 (no)

Input: Lookup CN(C)C(=O)Cl
Output: 0 (no)

----------
Target: Estrogen receptor (Homo sapiens) (UniProt P03372)
Sequence (P03372 whole entry, looked up, the tested form may be a part): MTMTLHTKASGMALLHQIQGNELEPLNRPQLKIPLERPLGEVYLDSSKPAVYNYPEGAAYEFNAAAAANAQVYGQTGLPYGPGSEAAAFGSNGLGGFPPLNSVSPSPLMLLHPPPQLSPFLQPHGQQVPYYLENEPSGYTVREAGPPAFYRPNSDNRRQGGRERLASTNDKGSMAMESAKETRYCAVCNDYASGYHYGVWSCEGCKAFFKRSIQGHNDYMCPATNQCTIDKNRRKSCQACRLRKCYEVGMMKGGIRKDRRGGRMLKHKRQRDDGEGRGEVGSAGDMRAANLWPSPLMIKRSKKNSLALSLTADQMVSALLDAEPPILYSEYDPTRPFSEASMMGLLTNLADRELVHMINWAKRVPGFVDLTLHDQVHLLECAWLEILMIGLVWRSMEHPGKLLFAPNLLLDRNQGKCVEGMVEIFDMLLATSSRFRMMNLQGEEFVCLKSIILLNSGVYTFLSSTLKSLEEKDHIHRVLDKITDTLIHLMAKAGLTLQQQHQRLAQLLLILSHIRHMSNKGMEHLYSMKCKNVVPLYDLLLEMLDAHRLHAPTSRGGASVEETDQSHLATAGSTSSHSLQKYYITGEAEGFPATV
Experiment: OT_ER_ERaERa_0480: Odyssey Thera (OT) 8-hour HEK293T Protein-Complementation Assay for Estrogen Receptor-alpha/-alpha Homodimer (AID 2283351);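 further: rise in fluorescence from reassembled reporter fragments on ERα LBD homodimer in nucleus or whole cell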
Inconclusive results are not listed. The source made the active and inactive calls. Rule for the calls: active = hit-call score of the fitted dose curve at least 0.9, where 1 is the maximum; inconclusive = response in the unintended direction; inactive = score below 0.9.
Respond using exactly one of the listed classes: active, inactive

Input: Would you mind telling me which call this test gave c1ccc(OP(Oc2ccccc2)Oc2ccccc2)cc1 ?
Output: inactive

Input: Lookup c1cc2c3c(cccc3c1)CC2
Output: inactive

Input: Lookup O=c1ssc(Cl)c1Cl
Output: inactive

Input: Lookup CCOP(=S)(Oc1ccc([N+](=O)[O-])cc1)c1ccccc1 (centres undefined)
Output: active

Input: Lookup O=C(O)CF
Output: inactive

Input: Lookup COC(N)=O
Output: inactive

Input: Lookup O=C(CBr)OCc1ccccc1
Output: inactive

Input: Lookup CO/N=C(/C(=O)OC)c1ccccc1COc1ccccc1C
Output: active

Input: Lookup O=[N+]([O-])c1ccc(Cl)c(Cl)c1
Output: inactive

Input: Lookup CCCCOCCOP(=O)(OCCOCCCC)OCCOCCCC
Output: inactive

Input: Lookup CCOC(=O)c1ccccc1N
Output: inactive

Input: Lookup CCCCN(CC)C(=O)SCCC
Output: inactive

Input: Lookup CCOP(=S)(OCC)SCSCC
Output: inactive

Input: Lookup Nc1ccc2ccccc2c1
Output: inactive

----------
Target: Aryl hydrocarbon receptor (Homo sapiens)
Test: ATG_Ahr_CIS: Attagene CIS-FACTORIAL HepG2 Assay for human Aryl Hydrocarbon Receptor (Ahr) (AID 2282930)
Settings: HepG2 AhR cis-factorial reporter transcription; actives raise or lower the signal
Active and inactive are the calls of the source. The calls were made as follows: active = hit-call score of the fitted dose curve at least 0.9, where 1 is the maximum; inactive = score below 0.9.
measured attribute: outcome

A selection of reference data follows.
{"compound": "Cc1cccc(N)c1", "target entity": "Aryl hydrocarbon receptor (Homo sapiens)", "outcome": "inactive"}
{"compound": "Cc1ccc(C(=O)Cl)cc1", "target entity": "Aryl hydrocarbon receptor (Homo sapiens)", "outcome": "inactive"}
{"compound": "CCC1(c2ccccc2)C(=O)N=C(O)NC1=O (configuration not stated)", "target entity": "Aryl hydrocarbon receptor (Homo sapiens)", "outcome": "inactive"}
{"compound": "O=C(O)C=CC(F)(C(F)(F)F)C(F)(F)F", "target entity": "Aryl hydrocarbon receptor (Homo sapiens)", "outcome": "inactive"}
{"compound": "CC(Cl)(Cl)C(=O)O", "target entity": "Aryl hydrocarbon receptor (Homo sapiens)", "outcome": "inactive"}
{"compound": "NNC(N)=S", "target entity": "Aryl hydrocarbon receptor (Homo sapiens)", "outcome": "inactive"}

Input: Given the compound O=P1(N(CCCl)CCCl)NCCCO1 (configuration not stated) , what is its reported outcome?
Output: inactive

----------
Read-out: Glutamate-cysteine ligase regulatory (GCLM), GCLM (gene 2730)
Assay: LTEA_HepaRG_GCLM: Life Technologies and Expression Analysis (LTEA) Assay for Glutamate-cysteine ligase regulatory (GCLM) using HepaRG (AID 2283500)
Settings: mRNA level, 48 h; actives raise or lower the signal
Activity calls are given as the source filed them. Rule for the calls: active = hit-call score of the fitted dose curve at least 0.9, where 1 is the maximum; inactive = score below 0.9.
Respond using exactly one of the listed classes: active, inactive

Input: Would you mind telling me which call this test gave O=C(O)C(Cl)Cl ?
Output: inactive

Input: Lookup [N-]=[N+]=[N-]
Output: active

Input: Lookup ClC(Cl)(Cl)c1ccccc1
Output: inactive

Input: Lookup CCC(C)(C)c1ccc(O)cc1
Output: inactive

Input: Lookup CCCCN(CCCC)SN(C)C(=O)Oc1cccc2c1OC(C)(C)C2
Output: inactive

Input: Lookup ClC1=C(Cl)C2(Cl)C3C(Cl)C(Cl)CC3C1(Cl)C2(Cl)Cl (stereo unspecified)
Output: active

Input: Lookup O=[N+]([O-])c1ccc(Cl)c(Cl)c1
Output: inactive

Input: Lookup CCOC(=O)c1ccccc1C(=O)OCC
Output: inactive

Input: Lookup CCNc1nc(Cl)nc(NC(C)(C)C)n1
Output: inactive

Input: Lookup CC(Cc1ccc(OCC(=O)O)cc1)NCC(O)c1csc(C(F)(F)F)n1 (stereo unspecified)
Output: inactive

Input: Lookup OCC1CO1 (stereo unspecified)
Output: inactive

----------
Read-out: Interleukin-1 alpha (IL1a), IL1A (gene 3552)
Test: BSK_BE3C_IL1a: BioMAP Diversity Plus: BE3C Assay for Interleukin-1 alpha (IL1a) Biomarker Activity (AID 2283016)
Details: primary human bronchial epithelial cells; actives raise or lower the signal
Activity calls are given as the source filed them. The calls were made as follows: active = hit-call score of the fitted dose curve at least 0.9, where 1 is the maximum; inactive = score below 0.9.
measured attribute: outcome

{"compound": "N#Cc1cc([N+](=O)[O-])ccc1N", "outcome": "inactive"}
{"compound": "Nc1ccc2ccccc2c1", "outcome": "inactive"}
{"compound": "O=C(O)C(F)(F)OC(F)(F)C(F)(F)OC(F)(F)F", "outcome": "inactive"}
{"compound": "FC(F)(F)C(F)(C(F)(F)F)C(F)(F)C(F)(F)CC1CO1 (configuration not stated)", "outcome": "inactive"}
{"compound": "O=C(O)C1C(C(=O)O)C2(Cl)C(Cl)=C(Cl)C1(Cl)C2(Cl)Cl (configuration not stated)", "outcome": "inactive"}
{"compound": "COC(=O)C(F)(F)C(F)(F)OC(F)(C(F)(F)F)C(F)(F)OC(F)=C(F)F (configuration not stated)", "outcome": "inactive"}

We next turn to a different compound, shown below.
Input: Given the compound COCCOCCO , what is its reported outcome?
Output: inactive

----------
Assay: BSK_BT_Bcell_Proliferation: Viability Assessment in the BioMAP Diversity Plus: BT Assay for B cell Proliferation (AID 2284227)
Details: primary human B cells with PBMC
The source made the active and inactive calls. Rule for the calls: active = hit-call score of the fitted dose curve at least 0.9, where 1 is the maximum; inactive = score below 0.9.
Respond using exactly one of the listed classes: y = active, n = inactive

Input: Would you mind telling me which call this test gave O=C(O)C(F)(F)OC(F)(F)C(F)(F)OC(F)(F)C(=O)O ?
Output: n

Input: Lookup COP(N)(=S)OC
Output: n

Input: Lookup CCOP(=S)(OCC)SCn1nnc2ccccc2c1=O
Output: n

Input: Lookup O=S(=O)(F)C(F)(F)C(F)(F)C(F)(F)C(F)(F)C(F)(F)C(F)(F)C(F)(F)C(F)(F)F
Output: n

Input: Lookup CCOP(=S)(OCC)SCS(=O)(=O)CC
Output: n

Input: Lookup N#Cc1c(-c2ccc(Cl)cc2)[nH]c(C(F)(F)F)c1Br
Output: y

Input: Lookup CCOP(=S)(S)OCC
Output: n

Input: Lookup FC(F)(F)C(F)(C(F)(F)F)C(F)(F)C(F)(F)CC1CO1 (stereo not given)
Output: n

Input: Lookup O=C(O)C=CC(F)(C(F)(F)F)C(F)(F)F
Output: n

Input: Lookup CCCCOCCOP(=O)(OCCOCCCC)OCCOCCCC
Output: n

Input: Lookup NC(=O)C(F)(F)C(F)(F)F
Output: n

Input: Lookup C=CC(=O)OCC(CC)(COC(=O)C=C)COC(=O)C=C
Output: y

Input: Lookup N#Cc1cc([N+](=O)[O-])ccc1N
Output: n

Input: Lookup CC(C)(C)c1ccccc1OP(=O)(Oc1ccccc1)Oc1ccccc1
Output: y

Input: Lookup CCCCC(CC)COC(=O)c1c(Br)c(Br)c(Br)c(Br)c1C(=O)OCC(CC)CCCC (stereo not given)
Output: n
